# Target Under Test: human JAK1 (a.a. 837-1142) (Homo sapiens, UniProt P23458)
# Construct: The catalytic domains of human JAK1 (a.a. 837-1142); His tag (N); made in house; host or cells: insect cells (baculovirus)
# Sequence (P23458 849-1154): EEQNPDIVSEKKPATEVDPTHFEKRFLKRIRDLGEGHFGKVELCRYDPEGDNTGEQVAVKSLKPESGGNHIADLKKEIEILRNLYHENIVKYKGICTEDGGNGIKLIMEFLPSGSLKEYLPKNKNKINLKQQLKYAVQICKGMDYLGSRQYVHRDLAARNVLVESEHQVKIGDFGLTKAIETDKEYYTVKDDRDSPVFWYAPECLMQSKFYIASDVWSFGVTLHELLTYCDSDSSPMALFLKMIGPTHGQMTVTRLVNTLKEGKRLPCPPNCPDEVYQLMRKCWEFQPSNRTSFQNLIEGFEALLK
# Experimental Protocol: In vitro JAK kinase assay (HTRF, phosphorylation of biotinylated peptide), JAK1
# Format: biochemical
# Conditions: 1 mM ATP; Examples 12-91; read-out: JAK1 IC50 (nM) @ 1 mM ATP
Counter-ions that a name gives are not always drawn.
Measurement Kind: IC50

Compound	Observed Value
N#CCC(CN1CCN(C(=O)c2ccc(C#N)cc2F)CC1)n1ccc(-c2ncnc3[nH]ccc23)c1 (single isomer, unassigned) [Example 13, trifluoroacetate Salt]	< 10 nM

Okay, here is my list. What is IC50 for each of these?
1. N#CCC(CN1CCN(C(=O)c2cc(F)cc(F)c2)CC1)n1ccc(-c2ncnc3[nH]ccc23)c1 (stereo not drawn) [Example 81]
2. N#CCC(CN1CCN(C(=O)c2ccc(O)c(Cl)c2)CC1)n1cc(-c2ncnc3[nH]ccc23)cn1 (stereo not drawn) [Example 54, trifluoroacetate salt]
3. N#CCC(CN1CCN(C(=O)c2ccccn2)CC1)n1cc(-c2ncnc3[nH]ccc23)cn1 (stereo not drawn) [Example 58]
4. COc1ccc(C(=O)N2CCN(CC(CC#N)n3ccc(-c4ncnc5[nH]ccc45)c3)CC2)cc1F (stereo not drawn) [Example 82]
5. C[C@H]1CN(C(=O)c2ccc(C#N)cc2F)CCN1CC(CC#N)n1cc(-c2ncnc3[nH]ccc23)cn1 (single isomer, unassigned) [25, S-2]

< 10 nM
10 to 50 nM
10 to 50 nM
< 10 nM
< 10 nM

----------
Consider the following compounds; for each one, report its IC50.
# Target Under Test: human JAK1 (a.a. 837-1142) (Homo sapiens)
# Construct: The catalytic domains of human JAK1 (a.a. 837-1142); His tag (N); made in house; host or cells: insect cells (baculovirus)
# Experimental Protocol: In vitro JAK kinase assay (HTRF, phosphorylation of biotinylated peptide), JAK1
# Assay type: biochemical
# Conditions: 1 mM ATP; Examples 12-91; read-out: JAK1 IC50 (nM) @ 1 mM ATP

Compound	IC50
Cc1cc(F)ccc1NC(=O)N1CCN(CC(CC#N)n2cc(-c3ncnc4[nH]ccc34)cn2)CC1 (stereo not shown)	10 to 50 nM
N#CCC(CN1CCN(S(=O)(=O)c2ccc(Cl)s2)CC1)n1cc(-c2ncnc3[nH]ccc23)cn1 (stereo not shown)	< 10 nM
Cc1cc(F)ccc1C(=O)N1CCN(CC(CC#N)n2cc(-c3ncnc4[nH]ccc34)cn2)CC1 (stereo not shown)	< 10 nM

// below: IC50 requested for another compound
What the record says about C[C@H]1CN(C(=O)c2ccc(C#N)cc2F)CCN1CC(CC#N)n1cc(-c2ncnc3[nH]ccc23)cn1 (single isomer, unassigned) [25, S-1] : IC50 is > 100 nM

----------
Consider the following compounds; for each one, report its IC50.
# Target Under Test: human JAK1 (a.a. 837-1142) (Homo sapiens)
# Construct: The catalytic domains of human JAK1 (a.a. 837-1142); His tag (N); made in house; host or cells: insect cells (baculovirus)
# Experimental Protocol: In vitro JAK kinase assay (HTRF, phosphorylation of biotinylated peptide), JAK1
# Assay type: biochemical
# Conditions: 1 mM ATP; Examples 12-91; read-out: JAK1 IC50 (nM) @ 1 mM ATP
# Protocol: Compounds herein were tested for inhibitory activity of JAK targets according to the following in vitro assay described in Park et al., Analytical Biochemistry 1999, 269, 94-104. […] The phosphorylated peptide was detected by homogenous time resolved fluorescence (HTRF). […] Binding to the Europium labeled antibody took place for 40 minutes and HTRF signal was measured on a Fusion plate reader (Perkin Elmer, Boston, Mass.). […]
Counter-ions that a name gives are not always drawn.

Below, each entry is followed by its recorded IC50 result.
Compound	Target Under Test	IC50
N#CCC(CN1CCN(C(=O)c2ccc(F)c(F)c2F)CC1)n1cc(-c2ncnc3[nH]ccc23)cn1 (stereo not shown) [Example 48, phosphate salt]	human JAK1 (a.a. 837-1142) (Homo sapiens)	< 10 nM
N#CCC(CN1CCN(C(=O)c2ncc(F)cc2F)CC1)n1ccc(-c2ncnc3[nH]ccc23)c1 (stereo not shown)	human JAK1 (a.a. 837-1142) (Homo sapiens)	< 10 nM
N#CCC(CN1CCN(C(=O)c2cccc(OC(F)(F)F)c2F)CC1)n1cc(-c2ncnc3[nH]ccc23)cn1 (stereo not shown)	human JAK1 (a.a. 837-1142) (Homo sapiens)	10 to 50 nM

// below: IC50 requested for another compound
Noted IC50 for N#CCC(CN1CCN(C(=O)c2cc(OC(F)(F)F)ccc2F)CC1)n1cc(-c2ncnc3[nH]ccc23)cn1 (stereo not shown) , tested on human JAK1 (a.a. 837-1142) (Homo sapiens): < 10 nM
